Hey, just so you know, these numbers are from patent US20110172153A1.

Tested System: T1, human parathyroid hormone receptor (PTHR) (human, UniProt Q03431 27-593)
T1 construct: Assayed in membranes of HKRK-B7 cells or of transiently transfected COS-7 cells, or on intact HKRK-B7/HKRK-B64/COS-7 cells; RG = co-transfected with negative-dominant Galpha-s; R0 = receptor alone plus GTPgammaS; also called hPTHR; human PTH receptor
T1 sequence: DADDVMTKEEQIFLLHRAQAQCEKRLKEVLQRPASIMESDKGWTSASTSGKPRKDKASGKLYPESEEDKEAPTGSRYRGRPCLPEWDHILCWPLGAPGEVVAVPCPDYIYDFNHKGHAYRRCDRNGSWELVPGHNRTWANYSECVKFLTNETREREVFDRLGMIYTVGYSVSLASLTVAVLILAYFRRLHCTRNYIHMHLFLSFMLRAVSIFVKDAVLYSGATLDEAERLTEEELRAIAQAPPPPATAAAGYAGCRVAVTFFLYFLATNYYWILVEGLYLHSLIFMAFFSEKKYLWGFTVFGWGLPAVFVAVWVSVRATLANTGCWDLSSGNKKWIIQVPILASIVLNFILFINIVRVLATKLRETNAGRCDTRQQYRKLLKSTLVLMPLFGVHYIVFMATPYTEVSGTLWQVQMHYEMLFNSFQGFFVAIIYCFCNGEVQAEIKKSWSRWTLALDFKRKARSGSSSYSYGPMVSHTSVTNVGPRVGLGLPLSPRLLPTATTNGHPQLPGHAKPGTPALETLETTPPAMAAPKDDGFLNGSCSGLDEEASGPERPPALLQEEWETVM
Experiment Notes: competition radioligand binding, human PTH1 receptor RG
Ends that are not written are not given here.
Measured Endpoint: IC50 (nM)
Just the number please, in nM, no unit attached.

The recorded IC50 for AVAEIQLMHQRAKWLNSMRAVEWLRKKLQDVHNF-OH (Mc = A1,3,12,Q10,R11,W14,R19) [A20,Mc-PTH(1-34)OH] is 0.4

The recorded IC50 for AVSEHQLLHDKGKSIQDERRRAFLLKLIAE-NH2 (also called EALK-PTHrP(1-30)) [E18,A22,L25,K26-PTHrP(1-30)NH] is 0.08

The recorded IC50 for AVAEIQLMHNLGKHLNSMERVEALRKKLQDVHNF-OH (also called [A^1,A^3,A^23]-PTH(1-34)OH; [A1,3,23]-hPTH(1-34)) [[A1,3,23]-PTH(1-34)OH] is 0.43

The recorded IC50 for AVAEIQLMHQRAKWLNSMRRVEFLRKKLQDVHNF-OH (Mc = A1,3,12,Q10,R11,W14,R19) [F23,Mc-PTH(1-34)OH] is 0.23
